System: Hep-3B cells
procedure details: Cellular assay: erythropoietin secretion in Hep-3B cells
Format: cell-based, human
experimental conditions: Homo sapiens, Hep3B, 100 μM compound, 24 hours, percent of EPO secretion relative to assay control compound 7-[(4-Chloro-phenyl)-(5-methyl-isoxazol-3-ylamino)-methyl]-quinolin-8-ol, read-out: Cellular % EPO Stimulation
Please note: Emax at 100 µM exactly at 60% is FALSE. Only values below 60% get TRUE.

>  <compound>
Cc1ccccc1-c1ccc2nc(-n3cc(C(=O)O)cn3)[nH]c(=O)c2c1 [Example 69]

>  <class name>
TRUE

$$$$
>  <compound>
COc1ccc2nc(-n3cc(C(=O)O)cn3)[nH]c(=O)c2c1 [Example 122]

>  <class name>
TRUE

$$$$
>  <compound>
O=C(O)c1cnn(-c2nc3ccc(OC(F)(F)F)cc3c(=O)[nH]2)c1 [Example 15]

>  <class name>
TRUE

$$$$
>  <compound>
COc1ccc(S(=O)(=O)c2cc3c(=O)[nH]c(-n4cc(C(=O)O)cn4)nc3cc2Cl)cc1OC [Example 71]

>  <class name>
TRUE

$$$$
>  <compound>
CCC(C)c1ccc2nc(-n3cc(C(=O)O)cn3)[nH]c(=O)c2c1 (centres unmarked) [Example 120]

>  <class name>
FALSE

$$$$
>  <compound>
O=C(O)c1cnn(-c2nc3ccc(NC(=O)c4ccccc4)cc3c(=O)[nH]2)c1 [Example 165]

>  <class name>
TRUE

$$$$
>  <compound>
O=C(O)c1cnn(-c2nc3ccc(Oc4cccc(F)c4)cc3c(=O)[nH]2)c1 [Example 34]

>  <class name>
FALSE

$$$$
>  <compound>
O=C(O)c1cnn(-c2nc3cc(F)cc(F)c3c(=O)[nH]2)c1 [Example 131]

>  <class name>
TRUE

$$$$

* * *

Test system: Hep-3B cells
procedure details: Cellular assay: erythropoietin secretion in Hep-3B cells
Format: cell-based, human
experimental conditions: Homo sapiens, Hep3B, 100 μM compound, 24 hours, percent of EPO secretion relative to assay control compound 7-[(4-Chloro-phenyl)-(5-methyl-isoxazol-3-ylamino)-methyl]-quinolin-8-ol, read-out: Cellular % EPO Stimulation

>  <compound>
O=C(O)c1cnn(-c2nc3ccc(Oc4cccc(C(F)(F)F)c4)cc3c(=O)[nH]2)c1 [Example 100]

>  <unit of measure>
%

>  <Emax at 100 µM>
55

$$$$
>  <compound>
O=C(O)c1cnn(-c2nc3ccc([N+](=O)[O-])cc3c(=O)[nH]2)c1 [Example 164]

>  <unit of measure>
%

>  <Emax at 100 µM>
17

$$$$
>  <compound>
Cc1cccc(-c2ccc3nc(-n4cc(C(=O)O)cn4)[nH]c(=O)c3c2)c1 [Example 190]

>  <unit of measure>
%

>  <Emax at 100 µM>
91

$$$$
>  <compound>
CSc1ccc2nc(-n3cc(C(=O)O)cn3)[nH]c(=O)c2c1 [Example 155]

>  <unit of measure>
%

>  <Emax at 100 µM>
40

$$$$
>  <compound>
COc1cccc(Oc2ccc3nc(-n4cc(C(=O)O)cn4)[nH]c(=O)c3c2)c1 [Example 31]

>  <unit of measure>
%

>  <Emax at 100 µM>
129

$$$$
>  <compound>
O=C(O)c1cnn(-c2nc3ccc(-c4cccc(F)c4)cc3c(=O)[nH]2)c1 [Example 196]

>  <unit of measure>
%

>  <Emax at 100 µM>
92

$$$$
>  <compound>
CC(C)(C)c1ccc2c(=O)[nH]c(-n3cc(C(=O)O)cn3)nc2c1 [Example 147]

>  <unit of measure>
%

>  <Emax at 100 µM>
11

$$$$
>  <compound>
O=C(O)c1cnn(-c2nc3ccc(-c4ccccc4C(F)(F)F)cc3c(=O)[nH]2)c1 [Example 201]

>  <unit of measure>
%

>  <Emax at 100 µM>
78

$$$$
>  <compound>
O=C(O)c1cnn(-c2nc3ccc(-c4ccc(F)cc4)cc3c(=O)[nH]2)c1 [Example 197]

>  <unit of measure>
%

>  <Emax at 100 µM>
108

$$$$
>  <compound>
O=C(O)c1cnn(-c2nc3ccc(Oc4cccnc4)cc3c(=O)[nH]2)c1 [Example 65]

>  <unit of measure>
%

>  <Emax at 100 µM>
42

$$$$
>  <compound>
O=C(O)c1cnn(-c2nc3ccc(Cc4ccccc4)cc3c(=O)[nH]2)c1 [Example 105]

>  <unit of measure>
%

>  <Emax at 100 µM>
129

$$$$
>  <compound>
CC(C)(C)c1cc(Oc2ccc3nc(-n4cc(C(=O)O)cn4)[nH]c(=O)c3c2)cc(C(C)(C)C)c1 [Example 35]

>  <unit of measure>
%

>  <Emax at 100 µM>
8

$$$$
>  <compound>
O=C(O)c1cnn(-c2nc3c(F)ccc(F)c3c(=O)[nH]2)c1 [Example 116]

>  <unit of measure>
%

>  <Emax at 100 µM>
17

$$$$
>  <compound>
O=C(O)c1cnn(-c2nc3ccc(N4CCCC4)cc3c(=O)[nH]2)c1 [Example 123]

>  <unit of measure>
%

>  <Emax at 100 µM>
17

$$$$
>  <compound>
O=C(O)c1cnn(-c2nc3ccc(NCc4c(Cl)cccc4Cl)cc3c(=O)[nH]2)c1 [Example 181]

>  <unit of measure>
%

>  <Emax at 100 µM>
118

$$$$
>  <compound>
C=C(Cl)c1ccc2nc(-n3cc(C(=O)O)cn3)[nH]c(=O)c2c1 [Example 77]

>  <unit of measure>
%

>  <Emax at 100 µM>
27

$$$$
>  <compound>
O=C(O)c1cnn(-c2nc3cc(Cl)c(SC(F)(F)F)cc3c(=O)[nH]2)c1 [Example 159]

>  <unit of measure>
%

>  <Emax at 100 µM>
16

$$$$

* * *

system name: human PHD2 (PHD2181-417) (Homo sapiens, UniProt Q9GZT9)
Construct: Smt (SUMO) tag (cleaved yes); made in house; host or cells: E. coli BL21 (pBAD vector)
Sequence (Q9GZT9 181-417): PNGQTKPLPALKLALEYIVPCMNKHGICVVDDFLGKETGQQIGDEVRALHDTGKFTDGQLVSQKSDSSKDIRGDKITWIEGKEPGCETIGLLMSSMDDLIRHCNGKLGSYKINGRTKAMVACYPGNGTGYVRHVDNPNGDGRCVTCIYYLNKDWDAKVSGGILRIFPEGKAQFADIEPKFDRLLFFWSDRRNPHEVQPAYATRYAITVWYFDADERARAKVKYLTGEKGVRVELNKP
procedure details: PHD enzymatic assay ([14C]-succinic acid production)
Format: biochemical
experimental conditions: PHD2181-417, HIF-1α peptide 10 μM, average of results; read-out: Enzyme pIC50 (converted)
Where a name gives a salt, the structure may show the parent alone.
Quick reference: IC50 of the listed items.

>  <compound>
O=C(O)c1cnn(-c2nc3ccc(Cl)cc3c(=O)[nH]2)c1 [Example 153]

>  <IC50 / µM>
0.0398

$$$$
>  <compound>
O=C(O)c1cnn(-c2nc3ccc(Oc4cccc(C(F)(F)F)c4F)cc3c(=O)[nH]2)c1 [Example 96]

>  <IC50 / µM>
0.0251

$$$$
>  <compound>
O=C(O)c1cnn(-c2nc3ccc([N+](=O)[O-])cc3c(=O)[nH]2)c1 [Example 164]

>  <IC50 / µM>
0.0251

$$$$
>  <compound>
Cc1cc2nc(-n3cc(C(=O)O)cn3)[nH]c(=O)c2cc1Oc1cccc(C(F)(F)F)c1 [Example 93]

>  <IC50 / µM>
0.02

$$$$
>  <compound>
O=C(O)c1cnn(-c2nc3ccc(C4CCCCC4)cc3c(=O)[nH]2)c1 [Example 21]

>  <IC50 / µM>
0.0251

$$$$
>  <compound>
O=C(O)c1cnn(-c2nc3ccc(Oc4cccc(-c5ccccc5)c4)cc3c(=O)[nH]2)c1 [Example 99]

>  <IC50 / µM>
0.0251

$$$$
>  <compound>
O=C(O)c1cnn(-c2nc3ccc(Oc4ccc5ccccc5c4)cc3c(=O)[nH]2)c1 [Example 43]

>  <IC50 / µM>
0.0251

$$$$
>  <compound>
O=C(O)c1cnn(-c2nc3cc(F)c(Oc4cccc(F)c4)cc3c(=O)[nH]2)c1 [Example 56]

>  <IC50 / µM>
0.02

$$$$
>  <compound>
O=C(O)c1cnn(-c2nc3c(Br)cccc3c(=O)[nH]2)c1 [Example 11]

>  <IC50 / µM>
0.158

$$$$
>  <compound>
CCCc1ccc2nc(-n3cc(C(=O)O)cn3)[nH]c(=O)c2c1 [Example 129]

>  <IC50 / µM>
0.0316

$$$$
>  <compound>
COc1cccc(-c2ccc3nc(-n4cc(C(=O)O)cn4)[nH]c(=O)c3c2)c1 [Example 199]

>  <IC50 / µM>
0.0251

$$$$
>  <compound>
O=C(O)c1cnn(-c2nc3ccc4c(c3c(=O)[nH]2)CCCC4)c1 [Example 144]

>  <IC50 / µM>
0.0398

$$$$
>  <compound>
O=C(O)c1cnn(-c2nc3ccc(F)cc3c(=O)[nH]2)c1 [Example 4]

>  <IC50 / µM>
0.0398

$$$$
>  <compound>
O=C(O)c1cnn(-c2nc3cc(Cc4ccccc4)ccc3c(=O)[nH]2)c1 [Example 136]

>  <IC50 / µM>
0.0316

$$$$
>  <compound>
O=C(O)c1cnn(-c2nc3cc(F)c(Br)cc3c(=O)[nH]2)c1 [Example 127]

>  <IC50 / µM>
0.0316

$$$$
>  <compound>
O=C(O)c1cnn(-c2nc3ccc(NS(=O)(=O)c4ccccc4)cc3c(=O)[nH]2)c1 [Example 169]

>  <IC50 / µM>
0.0251

$$$$
>  <compound>
O=C(O)c1cnn(-c2nc3cc(F)c(F)cc3c(=O)[nH]2)c1 [Example 5, trifluoroacetate salt]

>  <IC50 / µM>
0.02

$$$$
>  <compound>
O=C(O)c1cnn(-c2nc3cccc(Cl)c3c(=O)[nH]2)c1 [Example 6]

>  <IC50 / µM>
0.158

$$$$
>  <compound>
O=C(O)c1cnn(-c2nc3ccc(Oc4ccc(Cl)cc4Cl)cc3c(=O)[nH]2)c1 [Example 39]

>  <IC50 / µM>
0.0251

$$$$
>  <compound>
O=C(O)c1cnn(-c2nc3c(F)cc(Br)cc3c(=O)[nH]2)c1 [Example 130]

>  <IC50 / µM>
0.0794

$$$$
>  <compound>
O=C(O)c1cnn(-c2nc3cc(OC(F)(F)F)ccc3c(=O)[nH]2)c1 [Example 148]

>  <IC50 / µM>
0.126

$$$$
>  <compound>
Cc1ccccc1Oc1ccc2nc(-n3cc(C(=O)O)cn3)[nH]c(=O)c2c1 [Example 37]

>  <IC50 / µM>
0.0251

$$$$
>  <compound>
O=C(O)c1cnn(-c2nc3c(C(F)(F)F)cccc3c(=O)[nH]2)c1 [Example 16]

>  <IC50 / µM>
0.251

$$$$
>  <compound>
O=C(O)c1cnn(-c2nc3ccc(Oc4cccc(Cl)c4Cl)cc3c(=O)[nH]2)c1 [Example 60]

>  <IC50 / µM>
0.0316

$$$$
>  <compound>
O=C(O)c1cnn(-c2nc3ccc(S(=O)(=O)N4CCCC4)cc3c(=O)[nH]2)c1 [Example 161]

>  <IC50 / µM>
0.0398

$$$$
>  <compound>
O=C(O)c1cnn(-c2nc3cc(I)ccc3c(=O)[nH]2)c1 [Example 208]

>  <IC50 / µM>
0.126

$$$$
>  <compound>
O=C(O)c1cnn(-c2nc3ccc(NCc4ccccc4)cc3c(=O)[nH]2)c1 [Example 171]

>  <IC50 / µM>
0.0251

$$$$
>  <compound>
O=C(O)c1cnn(-c2nc3cc(-c4ccccc4)ccc3c(=O)[nH]2)c1 [Example 184]

>  <IC50 / µM>
0.0794

$$$$
>  <compound>
CCc1ccccc1-c1ccc2nc(-n3cc(C(=O)O)cn3)[nH]c(=O)c2c1 [Example 203]

>  <IC50 / µM>
0.0316

$$$$
>  <compound>
O=C(O)c1cnn(-c2nc3cc(Cl)c(Oc4ccc5ccccc5c4)cc3c(=O)[nH]2)c1 [Example 54]

>  <IC50 / µM>
0.0398

$$$$
>  <compound>
CC(C)(C)c1ccc(Sc2cc3c(=O)nc(-n4cc(C(=O)O)cn4)[nH]c3cc2Cl)cc1 [Example 24]

>  <IC50 / µM>
0.0251

$$$$
>  <compound>
O=C(O)c1cnn(-c2nc3c(Cl)cccc3c(=O)[nH]2)c1 [Example 14]

>  <IC50 / µM>
0.251

$$$$
>  <compound>
O=C(O)c1cnn(-c2nc3cc(F)c(Oc4c(Cl)cccc4Cl)cc3c(=O)[nH]2)c1 [Example 50]

>  <IC50 / µM>
0.0316

$$$$
>  <compound>
Cc1cc(C)cc(Oc2cc3c(=O)[nH]c(-n4cc(C(=O)O)cn4)nc3cc2C)c1 [Example 89]

>  <IC50 / µM>
0.0251

$$$$
